Test system: HL-60
Experiment: NCI tumour cell line growth inhibition, 48 h
Activity calls are given as the source filed them. No stated cut-off is given here; in the data, active = GI50 up to about 1.1 µM and inactive = higher.
Possible outcomes: active, inactive

molecule: O=C(O)c1nn(-c2ccc(Cl)cc2)c2c1C(=O)c1ccccc1C2=O
target_or_test_system: HL-60
class_assignment: inactive

molecule: O=c1[nH]c(=O)n(COCCO)cc1-c1ccccc1
target_or_test_system: HL-60
class_assignment: inactive

molecule: COc1ccc(/C(Cl)=C(\c2ccc(OCCN(C)C)cc2)c2ccc(OC(=O)C(C)(C)C)cc2)cc1
target_or_test_system: HL-60
class_assignment: inactive

molecule: COC(=O)C12C3C4C1C1C2C3C41I (stereo not given)
target_or_test_system: HL-60
class_assignment: inactive

molecule: COc1cc(OC)c2c(O)c(S(=O)(=O)c3ccc(C)cc3)c(=O)oc2c1
target_or_test_system: HL-60
class_assignment: inactive

molecule: COc1ccc(C2C3=C(Nc4ncnn42)c2ccccc2OC3c2ccccc2)cc1 (stereo not given)
target_or_test_system: HL-60
class_assignment: inactive

molecule: Cc1nc(N)nc(CCC(=O)Nc2cccc(C(F)(F)F)c2)c1-c1ccc(Cl)cc1
target_or_test_system: HL-60
class_assignment: inactive

molecule: CC12CCC(CC1(Cl)Cl)C2 (stereo not given)
target_or_test_system: HL-60
class_assignment: inactive

molecule: C[n+]1ccc2/c(=C\C#N)c3ccccc3n21
target_or_test_system: HL-60
class_assignment: inactive

molecule: CC1(C)[C@@H]2C[C@H]1C(Cc1ccc(C[C@H]3c4cc(-c5ccccn5)ncc4[C@H]4C[C@@H]3C4(C)C)cc1)c1cc(-c3ccccn3)ncc12 (stereo not given in full)
target_or_test_system: HL-60
class_assignment: active

----------
Tested on: 786-0
Assay: NCI tumour cell line growth inhibition, 48 h
Active and inactive are the calls of the source. Rule as the data show it: active = GI50 up to about 1.1 µM and inactive = higher.
Reported values of GI50 for individual entries

compound: CN(N)C(=O)NCCCl
GI50: > 100 µM (inactive)
--
compound: CN(C)/C=N\c1ccn(CCO)c(=O)n1
GI50: > 100 µM (inactive)
--
compound: CCCCCCCCCCC(O)[C@H]1CCC(C2CC[C@H]([C@H](O)CCCCCCCCCCC(O)CC3=CC(C)OC3=O)O2)O1 (stereo partly specified)
GI50: 3.51 µM (inactive)
--
compound: COC(=O)/C=C/CCC#Cc1ccccc1C#CCC/C=C/C(=O)OC
GI50: 4.98 µM (inactive)
--
compound: O=c1cc(-c2ccccc2)[nH]c2cc(F)cc(F)c12
GI50: 52.4 µM (inactive)
--
compound: CCOC(=O)c1cn2c(n1)sc1cc(OC)ccc12
GI50: 6.21 µM (inactive)

----------
Reported values of GI50 for individual entries
Test system: A498
Assay: NCI tumour cell line growth inhibition, 48 h
The source made the active and inactive calls. Rule as the data show it: active = GI50 up to about 1.1 µM and inactive = higher.
measured_quantity: GI50

compound: COc1ccc(/C=N/NC(=O)C2=C(N)N(c3ccccc3)C(=C(C#N)C#N)S2)cc1
measured_quantity: GI50
assay_value: 22.6 µM (inactive)

compound: COc1cc(OC)c2c(O)c(S(=O)(=O)c3ccc(C)cc3)c(=O)oc2c1
measured_quantity: GI50
assay_value: > 100 µM (inactive)

compound: CCOC(=O)c1cc(C2CCN(c3ccccc3)C2=O)c(C(=O)/C=C(/C)O)[nH]1 (stereo not given)
measured_quantity: GI50
assay_value: > 100 µM (inactive)

compound: COC(=O)/C=C/CCC#Cc1ccccc1C#CCC/C=C/C(=O)OC
measured_quantity: GI50
assay_value: 38.5 µM (inactive)

compound: COC1CC2C3/C(=N/Nc4ccc([N+](=O)[O-])cc4[N+](=O)[O-])CCC2(C)C3C1 (stereo not given)
measured_quantity: GI50
assay_value: > 10 µM (inactive)

compound: O=C(c1ccccc1)c1cc(-c2ccccc2)c(-c2ccccc2)[nH]c(=O)c1=O
measured_quantity: GI50
assay_value: 77.4 µM (inactive)

compound: CCOC(=O)C1=C(OC(OCC)C(CC)[Se]c2ccccc2)CCCC1 (stereo not given)
measured_quantity: GI50
assay_value: > 100 µM (inactive)

compound: CCN(CC)CCCNc1ccc2nnn3c4ccc(O)cc4c(=O)c1c23
measured_quantity: GI50
assay_value: 8.97 µM (inactive)

compound: CN1N=C2c3ccccc3CC[C@H]2C1c1cccc(O)c1 (stereo not given in full)
measured_quantity: GI50
assay_value: > 100 µM (inactive)

compound: O=S(=O)(O)C(F)(F)C(F)(F)C(F)(F)C(F)(F)F
measured_quantity: GI50
assay_value: 43.7 µM (inactive)
